system_tested: aromatase (CYP19) (Homo sapiens)
Construct: The enzyme was obtained from the microsomal fraction of freshly delivered human term placental tissue; from tissue; host or cells: human term placenta, microsomal fraction
Sequence (P11511 1-503): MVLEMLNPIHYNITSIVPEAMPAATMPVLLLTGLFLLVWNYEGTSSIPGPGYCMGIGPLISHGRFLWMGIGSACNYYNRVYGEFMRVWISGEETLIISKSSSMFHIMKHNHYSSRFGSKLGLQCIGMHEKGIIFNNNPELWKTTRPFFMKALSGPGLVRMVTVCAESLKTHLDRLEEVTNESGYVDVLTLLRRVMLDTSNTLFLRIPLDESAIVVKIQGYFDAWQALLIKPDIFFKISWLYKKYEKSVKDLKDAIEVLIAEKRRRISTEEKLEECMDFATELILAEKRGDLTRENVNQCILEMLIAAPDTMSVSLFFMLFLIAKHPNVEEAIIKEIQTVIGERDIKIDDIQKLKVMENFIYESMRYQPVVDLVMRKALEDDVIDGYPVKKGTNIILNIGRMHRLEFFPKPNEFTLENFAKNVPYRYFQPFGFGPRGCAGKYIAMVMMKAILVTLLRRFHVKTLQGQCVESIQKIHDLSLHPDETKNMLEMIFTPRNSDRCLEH
experiment_description: Inhibition of aromatase, human placental microsomes, 3H2O release
Type: biochemical
measurement_name: pIC50
By convention, pIC50 is the negative base-10 log of a molar concentration.

pIC50 lookup needed for CC(=O)O[C@H]1CC[C@@]2(C)C(=C/C(=N\OCCCn3ccnc3)[C@H]3[C@@H]4CC[C@H](OC(C)=O)[C@@]4(C)CC[C@@H]32)C1 , thanks. 5.51

Let us now turn to C[C@]12CC[C@H]3[C@@H](/C(=N\OCCCn4ccnc4)C=C4C[C@@H](O)CC[C@@]43C)[C@@H]1CC[C@@H]2O 4.92

###

system_tested: aromatase (CYP19) (Homo sapiens, UniProt P11511)
Construct: The enzyme was obtained from the microsomal fraction of freshly delivered human term placental tissue; from tissue; host or cells: human term placenta, microsomal fraction
experiment_description: Inhibition of aromatase, human placental microsomes, 3H2O release
Format: biochemical
condition_set: Substrate: 1β 3H-androstenedione/androstenedione 500 nm
Cut-off 30 on Inhibition on CYP19a RP: Relative potency; relative to aminoglutethimide (=1), inclusive. At or above means Criterion met; below means Criterion not met.

Is reported Inhibition on CYP19a RP: Relative potency; relative to aminoglutethimide (=1) greater than or equal to 30 here: COc1cc(/C=C2\C[C@H]3[C@@H]4CC=C5C[C@@H](O)CC[C@]5(C)[C@H]4CC[C@]3(C)[C@H]2O)ccc1OCCCn1ccnc1 Criterion not met

Let us now turn to O=C1/C(=C/c2cccc(OCCCn3ccnc3)c2)Cc2ccccc21 Criterion met

Let us now turn to COc1ccc(/C=C2\Cc3ccccc3C2=O)cc1OCCCn1ccnc1 Criterion not met

Let us now turn to O=C1/C(=C/c2ccccc2OCCCn2ccnc2)Cc2ccccc21 Criterion not met

Let us now turn to COc1cc(/C=C2\Cc3ccccc3C2=O)ccc1OCCCn1ccnc1 Criterion met

###

system_tested: aromatase (CYP19) (Homo sapiens)
Construct: The enzyme was obtained from the microsomal fraction of freshly delivered human term placental tissue; from tissue; host or cells: human term placenta, microsomal fraction
experiment_description: Inhibition of aromatase, human placental microsomes, 3H2O release
Type: biochemical
condition_set: Substrate: 1β 3H-androstenedione/androstenedione 500 nm; read-out: Inhibition on CYP19a IC50
measurement_name: IC50 (µM)
A number alone suffices; assume µM.

Requested read-out IC50, target or system aromatase (CYP19) (Homo sapiens), entry C[C@]12CC[C@H]3[C@@H](CC=C4C[C@@H](O)CC[C@@]43C)[C@@H]1C/C(=C\c1cccc(OCCCn3ccnc3)c1)[C@@H]2O 9.1

###

For each of the compounds below, state its melting point.

melting point lookup needed for O=C1C(=Cc2cccc(OCCn3ccnc3)c2)Cc2ccccc21 , thanks. 218 to 220 °C

Let us now turn to C[C@]12CC[C@H]3[C@@H](CC=C4C[C@@H](O)CC[C@@]43C)[C@@H]1C[C@H](n1ccnc1)[C@@H]2O 285 to 287 °C

Let us now turn to CC(=O)O[C@H]1CC[C@@]2(C)C(=CC[C@H]3[C@@H]4C[C@H](n5ccnc5)[C@H](OC(C)=O)[C@@]4(C)CC[C@@H]32)C1 197 to 199 °C

Let us now turn to COc1cc(C=C2C[C@H]3[C@@H]4CC=C5C[C@@H](OC(C)=O)CC[C@]5(C)[C@H]4CC[C@]3(C)[C@H]2OC(C)=O)ccc1OCCCn1ccnc1 163 to 168 °C

Let us now turn to O=C1/C(=C/c2cccc(OCCCn3ccnc3)c2)Cc2ccccc21 48 to 50 °C

Let us now turn to COc1cc(/C=C2\Cc3ccccc3C2=O)ccc1OCCCn1ccnc1 123 to 127 °C

Let us now turn to O=C1/C(=C/c2ccccc2OCCCn2ccnc2)Cc2ccccc21 76 to 78 °C

Let us now turn to CC(=O)O[C@H]1CC[C@@]2(C)C(=C/C(=N\OCCCn3ccnc3)[C@H]3[C@@H]4CC[C@H](OC(C)=O)[C@@]4(C)CC[C@@H]32)C1 180 to 182 °C
